Reference for the values: paper PMC7753147

- Tested on: FL-geph
- method_notes: µSPOT peptide microarray binding assay with full-length geph
- stated_conditions: µSPOT full positional scan of GlyRβ 15-mer DLRSNDFSIVGSLPR, intensity normalised to wild-type sequence (= 1)
Reported Fl-geph Binding Intensity [norm.] is given for each of the following sequences.
measurement_type: Fl-geph Binding Intensity [norm.] (norm.)

{"columns": ["chain_sequence", "measurement_type", "measure_unit", "measured_number"],
 "data": [
  ["DLRSNDFSIVGSLPY [GlyRβ_Full_Positional_Scan_289]", "Fl-geph Binding Intensity [norm.]", "norm.", 0.74],
  ["DLRSNDFSIVGSWPR [GlyRβ_Full_Positional_Scan_248]", "Fl-geph Binding Intensity [norm.]", "norm.", 0.93],
  ["DLRSNDFSIVGSLAR [GlyRβ_Full_Positional_Scan_261]", "Fl-geph Binding Intensity [norm.]", "norm.", 0.99],
  ["DLRSNDFSIVGSLTR [GlyRβ_Full_Positional_Scan_276]", "Fl-geph Binding Intensity [norm.]", "norm.", 0.96],
  ["DLRSNDFSIVGSLMR [GlyRβ_Full_Positional_Scan_278]", "Fl-geph Binding Intensity [norm.]", "norm.", 0.77],
  ["DLRSNDFSIVGSLLR [GlyRβ_Full_Positional_Scan_264]", "Fl-geph Binding Intensity [norm.]", "norm.", 0.74],
  ["DLRSNDFSIVSSLPR [GlyRβ_Full_Positional_Scan_215, GlyR β 414-428 variant G424S]", "Fl-geph Binding Intensity [norm.]", "norm.", 0.44],
  ["DLRSNDFSIVGSLCR [GlyRβ_Full_Positional_Scan_277]", "Fl-geph Binding Intensity [norm.]", "norm.", 0.67],
  ["DLRSNDFSIVGSLIR [GlyRβ_Full_Positional_Scan_263]", "Fl-geph Binding Intensity [norm.]", "norm.", 0.95],
  ["DLRSNDFSIVGSLPF [GlyRβ_Full_Positional_Scan_287]", "Fl-geph Binding Intensity [norm.]", "norm.", 0.64],
  ["DLRSNDFSIVGTLPR [GlyRβ_Full_Positional_Scan_236]", "Fl-geph Binding Intensity [norm.]", "norm.", 0.98],
  ["DLRSNDFSIVGSLGR [GlyRβ_Full_Positional_Scan_262]", "Fl-geph Binding Intensity [norm.]", "norm.", 0.82],
  ["DLRSNDFSIVHSLPR [GlyRβ_Full_Positional_Scan_213, GlyR β 414-428 variant G424H]", "Fl-geph Binding Intensity [norm.]", "norm.", 0.5],
  ["DLRSNDFSIVGSQPR [GlyRβ_Full_Positional_Scan_260]", "Fl-geph Binding Intensity [norm.]", "norm.", 0.97],
  ["DLRSNDFSIVGSHPR [GlyRβ_Full_Positional_Scan_253]", "Fl-geph Binding Intensity [norm.]", "norm.", 1.02],
  ["DLRSNDFSIVGSLPG [GlyRβ_Full_Positional_Scan_282]", "Fl-geph Binding Intensity [norm.]", "norm.", 0.92],
  ["DLRSNDFSIVGSYPR [GlyRβ_Full_Positional_Scan_249]", "Fl-geph Binding Intensity [norm.]", "norm.", 0.87],
  ["DLRSNDFSIVGSGPR [GlyRβ_Full_Positional_Scan_242]", "Fl-geph Binding Intensity [norm.]", "norm.", 0.91],
  ["DLRSNDFSIVGSLRR [GlyRβ_Full_Positional_Scan_272]", "Fl-geph Binding Intensity [norm.]", "norm.", 0.93],
  ["DLRSNDFSIVGELPR [GlyRβ_Full_Positional_Scan_231]", "Fl-geph Binding Intensity [norm.]", "norm.", 0.84]
]}
